experiment: NCI Yeast Anticancer Drug Screen. Data for the bub3 strain (AID 167); settings: S. cerevisiae bub3 mutant strain, at 50.0 µM, active compounds read high
Compounds without any hit were thinned out: in the full panel of roughly 79,000, 15% have a hit.
observedProperty: growth inhibition (%)
Give the value, in units of %, as a plain number.

**Query** Fill in growth inhibition for record [O-]c1c2cc(-[n+]3c(-c4ccccc4)cc(-c4ccccc4)cc3-c3ccccc3)cc1COCCOCCOCCOCCOC2
**Result** 21.7

**Query** Fill in growth inhibition for record O=C1OC(/C=C/c2ccccc2)Sc2ccccc21 (stereo not given)
**Result** 89.3

**Query** Fill in growth inhibition for record CCOC(=O)c1sc2[n+](c1C)C(=O)/C(=C/c1cc(OC)c(OC)c(OC)c1)S2
**Result** 40.9

**Query** Fill in growth inhibition for record COc1ccc2cc(CN3CCC(C4CCN(Cc5ccc6cc(OC)ccc6c5)CC4)CC3)ccc2c1
**Result** 89

**Query** Fill in growth inhibition for record COc1ccc2c(Cc3c4ccccc4cc4ccccc34)cncc2c1O
**Result** 87.7
